- Assay remarks: MELAS cybrid and Rieske KO viability enhancers – cell-based, MELAS cybrids, Rieske KO mouse fibroblasts, CellTiter-Glo, primary screen (AID 1508586); also: test concentration not given here
- Condition label: Rieske KO mouse fibroblast survival, low glucose, CellTiter-Glo 72 h
# cutoff -0.0006 applies to z-score; >= gives Yes, < gives No

Some solved cases for reference:
Exam item: Tell me whether z-score is at least -0.0006 here: CC(=O)OCC(=O)[C@]12N=C(C)O[C@@H]1C[C@H]1[C@@H]3CCC4=CC(=O)C=C[C@]4(C)[C@@H]3C(O)C[C@@]12C (stereo partly specified)
Marked response: No

Exam item: Tell me whether z-score is at least -0.0006 here: Cn1nc(C(=O)N2CCCCCC2)c2c1CCC(NCc1ccc(C(F)(F)F)cc1)C2 (stereo unspecified)
Marked response: No

Exam item: Tell me whether z-score is at least -0.0006 here: Nc1[nH]c(=O)[nH]c(=O)c1N
Marked response: Yes

Continuing:
Exam item: Tell me whether z-score is at least -0.0006 here: CC(C)(O)c1ccccc1CCC(SCC1(CC(=O)O)CC1)c1cccc(C=Cc2ccc3ccc(Cl)cc3n2)c1 (stereo unspecified)
Marked response: No

Exam item: Tell me whether z-score is at least -0.0006 here: CCn1cc(NC(=S)Nc2cc(Cl)ccc2OC)c(C(N)=O)n1
Marked response: Yes
